System: Proteus morg. 932
TEST PROTOCOL: Agar dilution test (Isosensitest medium / Denley multipoint inoculator), MIC
Format: cell-based
COND: read-out: Minimale Hemmkonzentration
QUANTITY MEASURED: MIC (µg/mL)
Field format: number, assumed µg/mL, no unit text.

Worked examples follow.
MOLECULE SMILES: CN(C)n1cc(C(=O)O)c(=O)c2ccccc21
MIC (µg/mL): 128
//
MOLECULE SMILES: O=C(O)c1cn(C2CC2)c2cccc([N+](=O)[O-])c2c1=O
MIC (µg/mL): 64

Prompt: Look at this compound and give its reported MIC. O=C(O)c1cn(C2CC2)c2cc([N+](=O)[O-])ccc2c1=O
Response: 0.25
